In this section we review reported HSA fluorescence, % of the initial fluorescence intensity (I/Io) values for a set of compounds.
- Assayed Target: human serum albumin (HSA) (Homo sapiens, UniProt P02768)
- Construct: purchased
- Sequence (P02768 25-609): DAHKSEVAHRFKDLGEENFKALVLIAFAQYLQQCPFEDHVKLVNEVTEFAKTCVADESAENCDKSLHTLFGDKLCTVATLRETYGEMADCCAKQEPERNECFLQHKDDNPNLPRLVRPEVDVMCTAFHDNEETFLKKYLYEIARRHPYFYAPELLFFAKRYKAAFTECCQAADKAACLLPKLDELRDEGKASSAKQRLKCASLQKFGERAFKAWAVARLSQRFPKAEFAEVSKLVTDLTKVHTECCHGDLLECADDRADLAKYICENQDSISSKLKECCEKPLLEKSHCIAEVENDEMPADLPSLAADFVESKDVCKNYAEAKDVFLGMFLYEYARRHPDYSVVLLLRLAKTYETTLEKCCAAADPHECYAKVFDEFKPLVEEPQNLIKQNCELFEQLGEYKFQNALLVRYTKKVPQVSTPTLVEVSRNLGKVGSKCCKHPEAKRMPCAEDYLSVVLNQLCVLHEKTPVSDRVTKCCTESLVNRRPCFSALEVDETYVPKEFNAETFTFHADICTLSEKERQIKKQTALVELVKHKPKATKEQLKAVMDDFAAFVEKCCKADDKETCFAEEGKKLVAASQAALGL
- Assay Protocol: Albumin binding by tryptophan fluorescence emission quenching
- Condition: λem,max = 351 nm, final value of titration (Figure S10)

[
  {
    "Compound": "CN1CCN(c2c(F)cc3c(=O)c(C(=O)[O-])cn(CCF)c3c2F)CC1.CN1CCN(c2c(F)cc3c(=O)c(C(=O)[O-])cn(CCF)c3c2F)CC1.[Ni+2].c1cnc2c(c1)ccc1cccnc12 [complex 19, [Ni(flrx)2(phen)]]",
    "Test Value": "43.9%"
  },
  {
    "Compound": "CN1CCN(c2c(F)cc3c(=O)c(C(=O)[O-])cn(CCF)c3c2F)CC1.CN1CCN(c2c(F)cc3c(=O)c(C(=O)[O-])cn(CCF)c3c2F)CC1.[Zn+2].c1cnc2c(c1)ccc1cccnc12 [complex 14, [Zn(flrx)2(phen)]]",
    "Test Value": "33.5%"
  },
  {
    "Compound": "CN1CCN(c2c(F)cc3c(=O)c(C(=O)[O-])cn(CCF)c3c2F)CC1.CN1CCN(c2c(F)cc3c(=O)c(C(=O)[O-])cn(CCF)c3c2F)CC1.[Co+2].c1ccc(Nc2ccccn2)nc1 [complex 16, [Co(flrx)2(bipyam)]]",
    "Test Value": "36.1%"
  },
  {
    "Compound": "CN1CCN(c2c(F)cc3c(=O)c(C(=O)[O-])cn(CCF)c3c2F)CC1.CN1CCN(c2c(F)cc3c(=O)c(C(=O)[O-])cn(CCF)c3c2F)CC1.[Ni+2].c1ccc(Nc2ccccn2)nc1 [complex 18, [Ni(flrx)2(bipyam)]]",
    "Test Value": "44.5%"
  }
]

Then there is this compound:
Task: Which HSA fluorescence, % of the initial fluorescence intensity (I/Io) value belongs to CN1CCN(c2c(F)cc3c(=O)c(C(=O)[O-])cn(CCF)c3c2F)CC1.[Cl-].[Cu+2].c1cnc2c(c1)ccc1cccnc12 [complex 8, [Cu(flrx)(phen)Cl]] ?
Result: 56.5%

----------
Each entry below lists one item and its recorded Epc(b), cathodic potential value.
- System: CT DNA
- Assay Protocol: Study of the DNA-interaction by cyclic voltammetry
- Type: binding, calf
- Condition: M(II)/M(I), 1:2 DMSO/buffer, presence of CT DNA
Supply the numeric figure in mV, leaving out any unit text.

[
  {
    "Compound": "CN1CCN(c2c(F)cc3c(=O)c(C(=O)[O-])cn(CCF)c3c2F)CC1.CN1CCN(c2c(F)cc3c(=O)c(C(=O)[O-])cn(CCF)c3c2F)CC1.CO.CO.[Co+2] [complex 4, [Co(flrx)2(MeOH)2]]",
    "Recorded Metric": "Epc(b), cathodic potential",
    "Test Value": "−735"
  }
]

Consider the record given below.
Task: If you can, please state the reported Epc(b), cathodic potential value of CN1CCN(c2c(F)cc3c(=O)c(C(=O)[O-])cn(CCF)c3c2F)CC1.CN1CCN(c2c(F)cc3c(=O)c(C(=O)[O-])cn(CCF)c3c2F)CC1.[Mn+2].c1ccc(-c2ccccn2)nc1 [complex 9, [Mn(flrx)2(bipy)]] .
Result: −684

----------
- Assayed Target: bovine serum albumin (BSA) (Bos taurus, UniProt P02769)
- Construct: purchased
- Sequence (P02769 25-607): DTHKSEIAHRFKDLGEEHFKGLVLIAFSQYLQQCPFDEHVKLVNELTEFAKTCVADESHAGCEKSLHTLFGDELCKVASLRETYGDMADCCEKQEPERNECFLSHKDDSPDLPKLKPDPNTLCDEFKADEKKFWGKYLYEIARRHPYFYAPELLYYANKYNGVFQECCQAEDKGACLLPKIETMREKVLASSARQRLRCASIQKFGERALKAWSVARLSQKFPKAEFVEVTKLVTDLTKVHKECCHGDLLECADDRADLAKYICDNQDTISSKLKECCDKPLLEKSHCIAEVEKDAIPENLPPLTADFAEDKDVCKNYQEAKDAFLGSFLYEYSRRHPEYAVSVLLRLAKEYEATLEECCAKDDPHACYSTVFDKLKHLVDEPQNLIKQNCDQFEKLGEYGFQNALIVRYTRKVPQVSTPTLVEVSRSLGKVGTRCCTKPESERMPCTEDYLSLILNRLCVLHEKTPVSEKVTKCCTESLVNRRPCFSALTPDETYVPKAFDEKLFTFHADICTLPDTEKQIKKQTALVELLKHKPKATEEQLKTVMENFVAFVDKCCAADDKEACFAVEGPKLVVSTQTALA
- Assay Protocol: Albumin binding by tryptophan fluorescence emission quenching
- Condition: BSA 3 μM, buffer pH 7.0, Scatchard equation
Here, each record is paired with measured K(BSA), BSA-binding constant data.

Task: Consider the compound shown here: CN1CCN(c2c(F)cc3c(=O)c(C(=O)[O-])cn(CCF)c3c2F)CC1.CN1CCN(c2c(F)cc3c(=O)c(C(=O)[O-])cn(CCF)c3c2F)CC1.[Zn+2].c1cnc2c(c1)ccc1cccnc12 [complex 14, [Zn(flrx)2(phen)]] What is its recorded K(BSA), BSA-binding constant?
Result: 5.56(±0.25) × 10^4 M^−1

----------
- System: CT DNA
- Assay Protocol: Study of the DNA-interaction by cyclic voltammetry
- Assay type: binding, calf
- Condition: M(II)/M(I), 1:2 DMSO/buffer, presence of CT DNA
Recorded Metric: Epa(b), anodic potential (mV)
Reply numerically in mV, unit not repeated.

Task: Reported Epa(b), anodic potential, compound CN1CCN(c2c(F)cc3c(=O)c(C(=O)[O-])cn(CCF)c3c2F)CC1.CN1CCN(c2c(F)cc3c(=O)c(C(=O)[O-])cn(CCF)c3c2F)CC1.[Mn+2].c1ccc(Nc2ccccn2)nc1 [complex 10, [Mn(flrx)2(bipyam)]] : ____
Result: −508

Task: What value of Epa(b), anodic potential has been reported for the following compound? CN1CCN(c2c(F)cc3c(=O)c(C(=O)[O-])cn(CCF)c3c2F)CC1.CN1CCN(c2c(F)cc3c(=O)c(C(=O)[O-])cn(CCF)c3c2F)CC1.[Co+2].c1ccc(-c2ccccn2)nc1 [complex 15, [Co(flrx)2(bipy)]]
Result: −541

Task: Given CN1CCN(c2c(F)cc3c(=O)c(C(=O)[O-])cn(CCF)c3c2F)CC1.CN1CCN(c2c(F)cc3c(=O)c(C(=O)[O-])cn(CCF)c3c2F)CC1.[Cu+2] [complex 1, [Cu(flrx)2]] , state its recorded Epa(b), anodic potential.
Result: −462

Task: Record request: Epa(b), anodic potential value, item CN1CCN(c2c(F)cc3c(=O)c(C(=O)[O-])cn(CCF)c3c2F)CC1.CN1CCN(c2c(F)cc3c(=O)c(C(=O)[O-])cn(CCF)c3c2F)CC1.[Ni+2].c1cnc2c(c1)ccc1cccnc12 [complex 19, [Ni(flrx)2(phen)]]
Result: −460

Task: Sample CN1CCN(c2c(F)cc3c(=O)c(C(=O)[O-])cn(CCF)c3c2F)CC1.CN1CCN(c2c(F)cc3c(=O)c(C(=O)[O-])cn(CCF)c3c2F)CC1.[Co+2].c1ccc(Nc2ccccn2)nc1 [complex 16, [Co(flrx)2(bipyam)]] — what was its Epa(b), anodic potential?
Result: −445

Task: Would you mind telling me what Epa(b), anodic potential value was observed for CN1CCN(c2c(F)cc3c(=O)c(C(=O)[O-])cn(CCF)c3c2F)CC1.[Cl-].[Cu+2].c1cnc2c(c1)ccc1cccnc12 [complex 8, [Cu(flrx)(phen)Cl]] ?
Result: −406

----------
# HSA fluorescence, % of the initial fluorescence intensity (I/Io) per entry
- Assayed Target: human serum albumin (HSA) (Homo sapiens, UniProt P02768)
- Construct: purchased
- Assay Protocol: Albumin binding by tryptophan fluorescence emission quenching
- Condition: λem,max = 351 nm, final value of titration (Figure S10)
Numeric only. Scale: %

// below: answered compounds
[
  {
    "Compound": "CN1CCN(c2c(F)cc3c(=O)c(C(=O)[O-])cn(CCF)c3c2F)CC1.CN1CCN(c2c(F)cc3c(=O)c(C(=O)[O-])cn(CCF)c3c2F)CC1.[Mn+2].c1cnc2c(c1)ccc1cccnc12 [complex 11, [Mn(flrx)2(phen)]]",
    "Test Value": 34.2
  },
  {
    "Compound": "CN1CCN(c2c(F)cc3c(=O)c(C(=O)[O-])cn(CCF)c3c2F)CC1.CN1CCN(c2c(F)cc3c(=O)c(C(=O)[O-])cn(CCF)c3c2F)CC1.CO.CO.[Zn+2] [complex 3, [Zn(flrx)2(MeOH)2]]",
    "Test Value": 19.8
  },
  {
    "Compound": "CN1CCN(c2c(F)cc3c(=O)c(C(=O)O)cn(CCF)c3c2F)CC1",
    "Test Value": 66.5
  }
]

Field: next compound
Task: Fill blank: measured HSA fluorescence, % of the initial fluorescence intensity (I/Io) of the compound CN1CCN(c2c(F)cc3c(=O)c(C(=O)[O-])cn(CCF)c3c2F)CC1.CN1CCN(c2c(F)cc3c(=O)c(C(=O)[O-])cn(CCF)c3c2F)CC1.[Co+2].c1cnc2c(c1)ccc1cccnc12 [complex 17, [Co(flrx)2(phen)]] is ____.
Result: 44.5

----------
- Assayed Target: human serum albumin (HSA) (Homo sapiens, UniProt P02768)
- Construct: purchased
- Assay Protocol: Albumin binding by tryptophan fluorescence emission quenching
- Condition: HSA 3 μM, buffer pH 7.0, Scatchard equation
Recorded Metric: K(HSA), HSA-binding constant

Task: // K(HSA), HSA-binding constant lookup, key: CN1CCN(c2c(F)cc3c(=O)c(C(=O)[O-])cn(CCF)c3c2F)CC1.CN1CCN(c2c(F)cc3c(=O)c(C(=O)[O-])cn(CCF)c3c2F)CC1.[Cu+2] [complex 1, [Cu(flrx)2]]
Result: 8.39(±0.27) × 10^4 M^−1

Task: Endpoint output: K(HSA), HSA-binding constant of CN1CCN(c2c(F)cc3c(=O)c(C(=O)[O-])cn(CCF)c3c2F)CC1.CN1CCN(c2c(F)cc3c(=O)c(C(=O)[O-])cn(CCF)c3c2F)CC1.CO.CO.[Zn+2] [complex 3, [Zn(flrx)2(MeOH)2]] . Value?
Result: 6.15(±0.25) × 10^4 M^−1

Task: I have this compound here, CN1CCN(c2c(F)cc3c(=O)c(C(=O)[O-])cn(CCF)c3c2F)CC1.CN1CCN(c2c(F)cc3c(=O)c(C(=O)[O-])cn(CCF)c3c2F)CC1.[Ni+2].c1ccc(Nc2ccccn2)nc1 [complex 18, [Ni(flrx)2(bipyam)]] , and I need its recorded K(HSA), HSA-binding constant.
Result: 7.13(±0.17) × 10^4 M^−1

Task: # get_value(readout='K(HSA), HSA-binding constant', item= CN1CCN(c2c(F)cc3c(=O)c(C(=O)[O-])cn(CCF)c3c2F)CC1.CN1CCN(c2c(F)cc3c(=O)c(C(=O)[O-])cn(CCF)c3c2F)CC1.[Ni+2].c1cnc2c(c1)ccc1cccnc12 [complex 19, [Ni(flrx)2(phen)]] )
Result: 6.65(±0.15) × 10^4 M^−1

Task: # K(HSA), HSA-binding constant lookup, item CN1CCN(c2c(F)cc3c(=O)c(C(=O)[O-])cn(CCF)c3c2F)CC1.CN1CCN(c2c(F)cc3c(=O)c(C(=O)[O-])cn(CCF)c3c2F)CC1.[Mn+2].c1ccc(Nc2ccccn2)nc1 [complex 10, [Mn(flrx)2(bipyam)]]
Result: 8.40(±0.58) × 10^4 M^−1

The measurements presented in this section are drawn from paper PMC9144902.
